system: A549/ATCC NSCLC; test: NCI-60 one-dose screen, 48 h (100 = growth as untreated, 0 = no growth, -100 = all killed); settings: 10 µM unless noted
Compounds without any hit were thinned out: in the full panel of roughly 83,000, 20% have a hit.
Classify: y when growth is strictly less than 90%; n when growth is not.

Quick check: does Cc1cc(=O)n2n1-c1ccc(Cl)cc1NC(=O)C2 have growth under 90%?
n

I'd appreciate it if you could check whether CC(=O)NC1(C(=O)O)CCCC1 has growth smaller than 90%.
n

Is the reported growth for Cc1ccccc1NC(=O)c1cc2ccccc2cc1O strictly below 90%?
y

Dear reviewer, please state whether C/C(=C\CCc1ccsc1)CC/C=C(\C)CCCN1CCC(CO)CC1 has growth strictly beneath 90%.
y

Is growth of CCC(=O)Nc1ccccc1C#C/C=C\C#Cc1ccccc1C(F)(F)F strictly below 90%?
y

State whether 90% exceeds growth recorded for O=C1NCN(c2ccccc2)C12CCN(CCCC(c1ccc(F)cc1)c1ccc(F)cc1)CC2 .
y

Take the compound C/C(=N/N=C(N)N)c1ccc(N)cc1 and say whether its growth is less than 90%.
n

Does the reported growth of O=[P@@]1(c2ccccc2)O[C@H](COCc2ccccc2)[C@@H](OCc2ccccc2)[C@H](OCc2ccccc2)[C@H]1NCc1ccccc1 stay below 90%?
y

hey, is growth for O=c1[nH]c(Cl)nc2c1cnn2-c1ccccc1 lower than 90% or not?
n

Please state whether growth is below 90% for C=C(C[C@](O)(C(=O)/C=C/c1ccc(Cl)cc1)C(=O)OC)c1ccccc1
y
